ASSAYED SYSTEM: T1, human GPC3-his tag protein (human, UniProt P51654 25-559, limits assumed)
T1 construct: recombinant soluble antigen used as analyte in all Biacore runs; also called recombinant GPC3 protein; rhGPC3-His; not shown: His tag
EXPERIMENTAL PROTOCOL: SPR Biacore 8K, mAb captured, affinity ranking
pKd: −log10 of the molar value.
MEASURE NAME: pKd

1. 52H5D3B8 chimeric mAb (antibody, V domains shown, also called 52H5D3B8-VH+VL; chimeric 52H5D3B8 mAb) VH: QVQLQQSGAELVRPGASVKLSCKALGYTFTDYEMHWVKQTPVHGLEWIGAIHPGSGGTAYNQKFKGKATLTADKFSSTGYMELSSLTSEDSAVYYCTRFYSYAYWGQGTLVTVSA VL: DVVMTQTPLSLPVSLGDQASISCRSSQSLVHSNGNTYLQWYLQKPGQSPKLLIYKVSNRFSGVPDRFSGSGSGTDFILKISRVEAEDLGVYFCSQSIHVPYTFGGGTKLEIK : 8.85
2. Hu 52H5D3B8-9 (antibody, V domains shown, humanized 52H5D3B8; also called 52H5D3B8 VH4 + VL0) VH: EVQLVQSGAEVKKPGASVKVSCKASGYTFTDYEMHWVRQAPGQGLEWIGAIHPGSGGTAYNQKFKGRVTLTADKSISTAYMELSRLRSDDTAVYYCTRFYSYAYWGQGTLVTVSS VL: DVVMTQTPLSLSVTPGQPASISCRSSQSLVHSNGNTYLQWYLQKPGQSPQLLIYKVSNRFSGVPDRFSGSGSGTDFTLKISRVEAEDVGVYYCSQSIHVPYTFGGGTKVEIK : 8.38
3. Hu 52H5D3B8-3 (antibody, V domains shown, humanized 52H5D3B8; also called 52H5D3B8 VH1 + VL0) VH: EVQLVQSGAEVKKPGASVKVSCKASGYTFTDYEMHWVRQAPGQGLEWMGAIHPGSGGTAYNQKFKGRVTMTRDTSISTAYMELSRLRSDDTAVYYCTRFYSYAYWGQGTLVTVSS VL: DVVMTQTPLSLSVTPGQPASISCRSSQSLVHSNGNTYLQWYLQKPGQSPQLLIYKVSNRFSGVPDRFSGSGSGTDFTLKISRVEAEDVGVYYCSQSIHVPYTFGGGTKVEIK : 8.36

# credit: patent US20240409663A1
